system: A549; test: Cytotoxicity against human A549 cells after 72 hrs by CCK8 assay; format: functional, cell-based; settings: A549, 72 h
test.readout: IC50 (µM)

compound: CC(=O)O[C@H]1C(=O)[C@@]2(C)[C@H]([C@H](OC(=O)c3ccccc3)[C@]3(O)C[C@H](OC(=O)[C@H](O)[C@@H](NC(=O)c4ccccc4)c4ccccc4)C(C)=C1C3(C)C)[C@]1(OC(C)=O)CO[C@@H]1C[C@@H]2O
test.result: 1.92
--
compound: C/C=C(\C)C(=O)O[C@@H]1[C@@H](C)[C@]2(O)[C@@H]3C=C(C)C(=O)[C@@H]3CC(C=O)=C[C@H]2[C@@H]2C(C)(C)[C@]12OC(C)=O
test.result: 6.88
--
compound: CCC(C)C(=O)O[C@@]12[C@H](O)[C@@H](C)[C@@]3(O)[C@@H](C=C(CO)C[C@]4(O)C(=O)C(C)=C[C@@H]34)[C@@H]1C2(C)C (stereo partly drawn)
test.result: 43.5

FYI, the data here is from ChEMBL document CHEMBL4428113.
